System: 565726-208-R1-J5-PDC complex spheroids, growth inhibition
Protocol Text: Anticancer human tumor 565726-208-R1-J5-PDC patient-derived pancreatic adenocarcinoma cell line growth inhibition [RAS]
Experimental Parameters: curve of first compound; second compound 0.1 µM
pIC50: −log10 of the molar value.
Metric Name: pIC50

Past entries and their recorded results:
# Compound, Experimental Value
data = [
    ("C[C@@H](NC(=O)c1ncnc(N)c1Cl)c1ncc(C(=O)Nc2cc(C(F)(F)F)c(Cl)cn2)s1 + C#Cc1c(F)ccc2cc(O)cc(-c3ncc4c(N5CC6CCC(C5)N6)nc(OCC56CCCN5CC(F)C6)nc4c3F)c12", "< 5.00"),
    ("CC(C)NCC(C(=O)N1CCN(c2ncnc3c2C(C)CC3O)CC1)c1ccc(Cl)cc1 (stereo not drawn) + C=CC(=O)N1CCN(c2nc(OCC3CCCN3C)nc3c(F)c(-c4nc(N)cc(C)c4C(F)(F)F)c(Cl)cc23)C(C)C1", "< 5.00"),
]

Okay, next one:
Task item: Please provide the recorded pIC50 for CC(=O)OC12COC1CC(O)C1(C)C(=O)C(O)C3=C(C)C(OC(=O)C(O)C(NC(=O)OC(C)(C)C)c4ccccc4)CC(O)(C(OC(=O)c4ccccc4)C21)C3(C)C (stereo not drawn) + C=CC(=O)N1CCN(c2nc(OCC3CCCN3C)nc3c(F)c(-c4nc(N)cc(C)c4C(F)(F)F)c(Cl)cc23)C(C)C1 , tested on 565726-208-R1-J5-PDC complex spheroids, growth inhibition.
Reply: > 7.50

###

Test system: 565726-208-R1-J5-PDC complex spheroids, growth inhibition
Protocol Text: Anticancer human tumor 565726-208-R1-J5-PDC cell line growth inhibition [RAS];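 also: spheroids exposed to compounds for seven days before readout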;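 as to viability, T/C: 100% = DMSO vehicle control viability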
Experimental Parameters: second compound 0.0316 µM; first compound 3.16 µM; stronger effect = lower value
Each entry below carries its reported viability, T/C.
The figure you give is taken to be in %; do not add the unit.

Task item: Query (compound): CC(C)NCC(C(=O)N1CCN(c2ncnc3c2C(C)CC3O)CC1)c1ccc(Cl)cc1 (stereo unspecified) + C#Cc1c(F)ccc2cc(O)cc(-c3ncc4c(N5CC6CCC(C5)N6)nc(OCC56CCCN5CC(F)C6)nc4c3F)c12 ; field requested: viability, T/C
Reply: 80.2

Task item: Query (compound): CC1(O)CCCC1n1c(=O)c(C(F)F)cc2cnc(NC3CCN(S(C)(=O)=O)CC3)nc21 (stereo unspecified) + C=CC(=O)N1CCN(c2nc(OCC3CCCN3C)nc3c(F)c(-c4nc(N)cc(C)c4C(F)(F)F)c(Cl)cc23)C(C)C1 ; field requested: viability, T/C
Reply: 59.5

Task item: Query (compound): C[C@@H](NC(=O)c1ncnc(N)c1Cl)c1ncc(C(=O)Nc2cc(C(F)(F)F)c(Cl)cn2)s1 + C#Cc1c(F)ccc2cc(O)cc(-c3ncc4c(N5CC6CCC(C5)N6)nc(OCC56CCCN5CC(F)C6)nc4c3F)c12 ; field requested: viability, T/C
Reply: 135

Task item: Query (compound): Cc1nc(N2CCC3(CC2)COC(C)C3N)c(CO)nc1Sc1ccnc(N)c1Cl (stereo unspecified) + C=CC(=O)N1CCN(c2nc(OCC3CCCN3C)nc3c(F)c(-c4nc(N)cc(C)c4C(F)(F)F)c(Cl)cc23)C(C)C1 ; field requested: viability, T/C
Reply: 126

Task item: Query (compound): C[C@@H](NC(=O)c1ncnc(N)c1Cl)c1ncc(C(=O)Nc2cc(C(F)(F)F)c(Cl)cn2)s1 + C=CC(=O)N1CCN(c2nc(OCC3CCCN3C)nc3c(F)c(-c4nc(N)cc(C)c4C(F)(F)F)c(Cl)cc23)C(C)C1 ; field requested: viability, T/C
Reply: 88.2

Task item: Query (compound): CC1(O)CCCC1n1c(=O)c(C(F)F)cc2cnc(NC3CCN(S(C)(=O)=O)CC3)nc21 (stereo unspecified) + C#Cc1c(F)ccc2cc(O)cc(-c3ncc4c(N5CC6CCC(C5)N6)nc(OCC56CCCN5CC(F)C6)nc4c3F)c12 ; field requested: viability, T/C
Reply: 62.2
